# system: T1, monovalent hVISTA-ECD (human VISTA extracellular domain with His tail) (human, UniProt Q9H7M9 33-193)
# T1 construct: analyte flowed over captured antibody; also called huVISTA-His
# T1 sequence (Q9H7M9 other isoform, or with tags, fused parts or gaps limits assumed): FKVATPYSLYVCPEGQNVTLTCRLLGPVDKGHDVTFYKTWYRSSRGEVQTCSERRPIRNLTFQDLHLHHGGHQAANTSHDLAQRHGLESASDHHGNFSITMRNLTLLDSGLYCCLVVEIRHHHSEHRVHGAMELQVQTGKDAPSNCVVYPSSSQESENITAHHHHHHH
# protocolDescription: SPR, pH 6.0
reportedProperty: kon (M⁻¹ s⁻¹)
Reply numerically in M⁻¹ s⁻¹, unit not repeated.

Use these answered entries as a reference point.
P1-064534 (41F11_VH_D31E/S35Y/Y50W/S55E/A60H/Y100E/F100aG) (antibody, V domains shown, Kabat positions; also called P1-064534-1) VH: QVQLVESGGGLVKPGGSLRLSCAASGFTFSEYYMYWIRQAPGKGLEWVSWISNSGEPIYYHDSVKGRFTISRDNAKNSLYLQMNSLRAEDTAVYYCARDLPGWEGDLWGRGTLVTVSS VL: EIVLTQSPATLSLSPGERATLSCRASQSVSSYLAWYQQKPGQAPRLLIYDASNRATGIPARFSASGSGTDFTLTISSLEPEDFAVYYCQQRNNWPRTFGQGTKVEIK: 717000
P1-065320 (41F11_VH_L96EF100aG VK_A64G) (antibody, V domains shown) VH: QVQLVESGGGLVKPGGSLRLSCAASGFTFSDYYMSWIRQAPGKGLEWVSYISNSGSPIYYADSVKGRFTISRDNAKNSLYLQMNSLRAEDTAVYYCARDEPGWYGDLWGRGTLVTVSS VL: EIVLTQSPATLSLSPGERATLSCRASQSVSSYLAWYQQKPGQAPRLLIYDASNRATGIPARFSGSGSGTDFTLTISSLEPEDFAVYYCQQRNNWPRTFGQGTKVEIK: 694000
P1-064526 (41F11_VH_D31E/Y50W/S55E/A60H/Y100E) (antibody, V domains shown, Kabat positions; also called P1-064526-1) VH: QVQLVESGGGLVKPGGSLRLSCAASGFTFSEYYMSWIRQAPGKGLEWVSWISNSGEPIYYHDSVKGRFTISRDNAKNSLYLQMNSLRAEDTAVYYCARDLPGWEFDLWGRGTLVTVSS VL: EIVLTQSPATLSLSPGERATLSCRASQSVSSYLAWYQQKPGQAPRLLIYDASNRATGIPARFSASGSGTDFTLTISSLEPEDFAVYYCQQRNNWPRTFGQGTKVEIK: 3.84e+06

Measured kon, P1-064516 (41F11_Vk_V29D/A64G/R91T/R96Y) (antibody, V domains shown, also called P1-064516-1) VH: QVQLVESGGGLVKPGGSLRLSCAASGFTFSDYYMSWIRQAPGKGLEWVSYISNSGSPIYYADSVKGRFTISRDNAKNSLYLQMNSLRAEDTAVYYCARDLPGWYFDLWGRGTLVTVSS VL: EIVLTQSPATLSLSPGERATLSCRASQSDSSYLAWYQQKPGQAPRLLIYDASNRATGIPARFSGSGSGTDFTLTISSLEPEDFAVYYCQQTNNWPYTFGQGTKVEIK : 2.28e+06

Measured kon, P1-065329 (41F11_VH_D31E/S35Y/Y50W/S55E/A60H/Y100E/F100aG VK_A64G) (antibody, V domains shown, Kabat positions; also called P1-065329-1) VH: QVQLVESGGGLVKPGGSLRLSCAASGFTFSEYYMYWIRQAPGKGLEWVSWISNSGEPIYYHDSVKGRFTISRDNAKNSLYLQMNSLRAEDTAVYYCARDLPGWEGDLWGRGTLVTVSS VL: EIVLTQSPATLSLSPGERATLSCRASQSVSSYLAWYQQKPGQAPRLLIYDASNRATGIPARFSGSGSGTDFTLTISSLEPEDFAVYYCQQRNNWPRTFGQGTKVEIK : 663000
